Biological target: Recombinant human FGFR2 (Homo sapiens, UniProt P21802)
Sequence (P21802 22-821): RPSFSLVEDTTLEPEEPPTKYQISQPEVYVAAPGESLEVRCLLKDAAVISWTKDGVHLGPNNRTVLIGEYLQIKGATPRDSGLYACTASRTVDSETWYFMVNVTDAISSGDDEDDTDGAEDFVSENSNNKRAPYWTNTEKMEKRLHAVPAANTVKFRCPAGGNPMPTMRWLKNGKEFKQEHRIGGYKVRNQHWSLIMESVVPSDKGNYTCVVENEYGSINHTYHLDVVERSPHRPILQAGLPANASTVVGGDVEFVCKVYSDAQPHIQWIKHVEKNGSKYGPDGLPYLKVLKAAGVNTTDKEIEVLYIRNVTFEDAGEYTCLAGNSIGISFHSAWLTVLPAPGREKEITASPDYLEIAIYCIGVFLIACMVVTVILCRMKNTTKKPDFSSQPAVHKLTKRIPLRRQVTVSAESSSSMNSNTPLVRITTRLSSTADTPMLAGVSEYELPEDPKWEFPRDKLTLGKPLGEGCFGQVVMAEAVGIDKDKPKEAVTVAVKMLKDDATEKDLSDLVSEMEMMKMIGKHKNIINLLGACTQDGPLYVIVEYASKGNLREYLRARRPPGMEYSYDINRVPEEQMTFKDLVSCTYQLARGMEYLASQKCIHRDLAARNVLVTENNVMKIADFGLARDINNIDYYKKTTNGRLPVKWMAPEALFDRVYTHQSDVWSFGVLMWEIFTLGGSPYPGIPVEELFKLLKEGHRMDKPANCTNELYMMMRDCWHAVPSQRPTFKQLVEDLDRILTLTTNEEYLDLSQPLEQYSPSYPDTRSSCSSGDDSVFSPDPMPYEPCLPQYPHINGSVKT
Test: Transcreener Kinase Assay of FGFR2
Format: biochemical
Conditions: read-out: FGFR2 (FP) IC50
Experimental: Example 24: Transcreener Kinase Assay of FGFR2 • 1. […] Prepare Solution • Test compounds were solved in DMSO and were diluted with assay buffer to 5 folds of final concentration keeping the DMSO concentration at 5%. […] [formula] […] And mP value is measured by following the instruction provided by BellBrook Labs. […] IC50: determined with add-in software for Microsoft Excel, XLfit™ (version 2.0) from ID Business Solutions (Guildford, UK).
assay.metric: pIC50
Entry type: numeric. Quantity: pIC50, the -log10 of concentration in molar units.

Quick one: pIC50 for CNC(=O)c1cc(COc2cnc(Nc3ccc(N4CCOCC4)c(OC)c3)nc2)c(F)c(OC)c1 [Compound 261] ?
7.89

For CCN1CCN(c2ccc(Nc3ncc(OCc4cc(C(=O)NC)cc(OC)c4Cl)cn3)cn2)CC1 [Compound 272] then?
8.05

Also CNC(=O)c1cc(CCc2cnc(Nc3ccc(N4CCN(C)CC4)c(OC)c3)nc2)c(F)c(OC)c1 [Compound 172] , if possible.
8.22

Here is the next molecule: CNC(=O)c1cc(CCc2cnc(Nc3ccc(N4C[C@@H](C)N(C)[C@@H](C)C4)cc3)nc2)c(F)c(OC)c1 [Compound 171]
8.10

Item: CCn1cc(Nc2ncc(/C=C/c3cc(C(=O)NC)cc(OC)c3Br)cn2)cn1 [Compound 3]
7.55

Now consider CNC(=O)c1cc(CCc2cnc(Nc3ccc(C(C)(C)C#N)nc3)nc2)c(F)c(OC)c1 [Compound 142] and answer again.
7.92

And for CNC(=O)c1cc(COc2cnc(Nc3ccc(N4C[C@@H](C)N(C)[C@@H](C)C4)nc3)nc2)c(F)c(OC)c1 [Compound 268] ?
7.80
